Test: Apparent permeability from basolateral to apical side in human CaCo2 cells
Assay type: ADME, cell-based
Conditions: Caco-2
RECORDED_ENDPOINT: Papp B→A (×10⁻⁶ cm/s)
Respond numerically; units are ×10⁻⁶ cm/s and should not be typed.

// CCNC(=O)Nc1ccc(-c2nc(N3CCOC[C@@H]3C)c3c(n2)C(C)(C)S(=O)(=O)C3)cc1 : Papp B→A value = 0.102

----------
Experiment: AUC (0 to infinity) in Sprague-Dawley rat at 1 mg/kg, iv as bolus dose by LC-MS/MS analysis
Type: ADME, organism-based
Parameters: dose 1 mg/kg, route intravenous, time infinity
Settings: in vivo
RECORDED_ENDPOINT: AUC(0-inf) (µM·h)
Record the value in µM·h, omitting the unit from your answer.

// recorded AUC(0-inf) for CCNC(=O)Nc1ccc(-c2nc(N3CCOC[C@@H]3C)c3c(n2)C(C)(C)S(=O)(=O)C3)cc1 : 0.76

----------
Assay: Apparent permeability from apical to basolateral side in human CaCo2 cells
Format: ADME, cell-based
Details: Caco-2
RECORDED_ENDPOINT: Papp A→B (×10⁻⁶ cm/s)
Answer format: numeric, ×10⁻⁶ cm/s implied, no suffix.

For this molecule ( CCNC(=O)Nc1ccc(-c2nc(N3CCOC[C@@H]3C)c3c(n2)C(C)(C)S(=O)(=O)C3)cc1 ), measured Papp A→B is 0.047

----------
Assay: Tmax in Sprague-Dawley rat at 3 mg/kg, po administered through gavage by LC-MS/MS analysis
Assay type: ADME, organism-based
Conditions: in vivo
RECORDED_ENDPOINT: Tmax (min)
// return numeric value only (unit: min, not printed)

Query CCNC(=O)Nc1ccc(-c2nc(N3CCOC[C@@H]3C)c3c(n2)C(C)(C)S(=O)(=O)C3)cc1 yields Tmax of 30

----------
Assay: Plasma clearance in Sprague-Dawley rat at 1 mg/kg, iv as bolus dose or 3 mg/kg, po administered through gavage measured up to 8 hrs by LC-MS/MS analysis
Assay type: ADME, organism-based
RECORDED_ENDPOINT: clearance
The reply should read as a number followed by its unit.

Sure, the documented clearance for CCNC(=O)Nc1ccc(-c2nc(N3CCOC[C@@H]3C)c3c(n2)C(C)(C)S(=O)(=O)C3)cc1 is 2.94 L/h/kg

----------
Experiment: AUC (0 to infinity) in Sprague-Dawley rat at 3 mg/kg, po administered through gavage by LC-MS/MS analysis
Assay type: ADME, organism-based
Parameters: dose 3 mg/kg, route oral, time infinity
Conditions: in vivo
RECORDED_ENDPOINT: AUC(0-inf)
Please state the value followed by its unit.

Entry CCNC(=O)Nc1ccc(-c2nc(N3CCOC[C@@H]3C)c3c(n2)C(C)(C)S(=O)(=O)C3)cc1 , AUC(0-inf) reported as 1 µM·h
